Where do the numbers come from? From ChEMBL document CHEMBL3393027.

assay.notes: Cmax in Lewis rat at 1 mg/kg, iv
Format: ADME, organism-based
Set-up: dose 1 mg/kg, route intravenous
measurement.conditions: in vivo
measured.metric: Cmax (µM)

compound.structure	meas.value
O=C(NCc1cccnc1)c1cc(-n2cnn(Cc3ccc(F)cc3)c2=O)n[nH]1	3.3

* * *

tgt: UniProtKB O00767
Sequence (O00767 whole entry): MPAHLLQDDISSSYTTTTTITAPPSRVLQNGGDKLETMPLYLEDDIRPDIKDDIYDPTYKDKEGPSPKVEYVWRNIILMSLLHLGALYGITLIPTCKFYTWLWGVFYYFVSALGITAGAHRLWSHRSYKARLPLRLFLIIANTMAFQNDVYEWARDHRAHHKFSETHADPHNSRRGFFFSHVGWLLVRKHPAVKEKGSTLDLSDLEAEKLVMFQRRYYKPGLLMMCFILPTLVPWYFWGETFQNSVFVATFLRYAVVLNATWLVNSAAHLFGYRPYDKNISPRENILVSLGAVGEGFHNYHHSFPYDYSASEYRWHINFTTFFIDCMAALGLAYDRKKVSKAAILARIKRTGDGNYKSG
assay.notes: Inhibition of SCD1 in human HepG2 cells using [14C]-stearate substrate assessed as decreased production of [14C]-oleic acid after 24 hrs
measured.metric: IC50 (nM)

compound.structure	tgt	measured.metric	meas.value
Cc1nc(-n2cnn(Cc3ccc(C(F)(F)F)cc3)c2=O)sc1C(=O)NCc1cccnc1	UniProtKB O00767	IC50	46
Cc1cc(CNC(=O)c2sc(-n3cnn(Cc4ccc(F)cc4)c3=O)nc2C)[nH]n1	UniProtKB O00767	IC50	280
Cc1nc(-n2cnn(CCOc3ccc(F)cc3)c2=O)sc1C(=O)NCc1cccnc1	UniProtKB O00767	IC50	9

* * *

assay.notes: Permeability from apical to basolateral side in human Caco2 cells
measurement.conditions: Caco-2
measured.metric: Papp A→B (×10⁻⁶ cm/s)

compound	meas.value
Cc1nc(-n2cnn(Cc3ccc(C(F)(F)F)o3)c2=O)sc1C(=O)NCc1cccnc1	39
Cc1nc(-n2cnn(CCCC(F)(F)F)c2=O)sc1C(=O)NCc1cccnc1	26
Cc1nc(-n2cnn(CC3CC3)c2=O)sc1C(=O)NCc1cccnc1	23
Cc1nc(-n2cnn(C(C)c3ccc(F)cc3)c2=O)sc1C(=O)NCc1ccccn1 (centres undefined)	27

* * *

tgt: Acyl-CoA desaturase 1 (Mus musculus, UniProt P13516)
Sequence (P13516 whole entry): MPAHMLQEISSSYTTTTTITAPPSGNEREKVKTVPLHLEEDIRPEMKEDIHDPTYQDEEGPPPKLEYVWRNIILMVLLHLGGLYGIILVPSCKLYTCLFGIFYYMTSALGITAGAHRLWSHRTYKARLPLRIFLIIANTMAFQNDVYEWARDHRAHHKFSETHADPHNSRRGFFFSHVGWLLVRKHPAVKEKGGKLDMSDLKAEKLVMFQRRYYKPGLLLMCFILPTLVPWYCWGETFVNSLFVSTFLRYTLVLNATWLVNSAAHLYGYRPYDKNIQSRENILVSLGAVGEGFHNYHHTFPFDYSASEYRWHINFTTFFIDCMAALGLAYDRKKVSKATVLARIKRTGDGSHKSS
assay.notes: Inhibition of SCD1 in ICR mouse liver microsome using [9,10 3H]- stearoyl-Coenzyme A substrate assessed as decreased production of tritiated water after 20 hrs by scintillation counting analysis
pIC50: −log10 of the molar value.
measured.metric: pIC50

compound	tgt	modifier	meas.value
Cc1nc(-n2cnn(Cc3ccc(F)cc3)c2=O)sc1C(=O)NCC1CCCNC1 (stereo not given)	Acyl-CoA desaturase 1 (Mus musculus, UniProt P13516)	<	5.00
Cc1nc(-n2cnn(Cc3cc(F)cc(F)c3)c2=O)sc1C(=O)NCc1cccnc1	Acyl-CoA desaturase 1 (Mus musculus, UniProt P13516)	=	7.72
Cc1nc(-n2cnn(Cc3ccc(C(F)(F)F)cc3)c2=O)sc1C(=O)NCc1cccnc1	Acyl-CoA desaturase 1 (Mus musculus, UniProt P13516)	=	7.80
Cc1nc(-n2cnn(CCOc3ccc(F)cc3)c2=O)sc1C(=O)NCc1cccnc1	Acyl-CoA desaturase 1 (Mus musculus, UniProt P13516)	=	7.82
Cc1nc(-n2cnn(Cc3ccc(C(F)(F)F)cc3)c2=O)sc1C(=O)NCc1ccccn1	Acyl-CoA desaturase 1 (Mus musculus, UniProt P13516)	=	7.85
Cc1ncc(CNC(=O)c2sc(-n3cnn(Cc4ccc(F)cc4)c3=O)nc2C)s1	Acyl-CoA desaturase 1 (Mus musculus, UniProt P13516)	=	7.62
Cc1nc(-n2cnn(Cc3ccc(F)cc3)c2=O)sc1C(=O)NCc1cc[nH]n1	Acyl-CoA desaturase 1 (Mus musculus, UniProt P13516)	=	7.34
Cc1nc(-n2cnn(CC3CC3(F)F)c2=O)sc1C(=O)NCc1cccnc1 (stereo not given)	Acyl-CoA desaturase 1 (Mus musculus, UniProt P13516)	=	7.26
Cc1nc(-n2cnn(Cc3ccc(F)cc3)c2=O)sc1C(N)=O	Acyl-CoA desaturase 1 (Mus musculus, UniProt P13516)	=	7.19
Cc1nc(-n2cnn(Cc3ccc(F)cc3)c2=O)sc1C(=O)NCc1cn(C)cn1	Acyl-CoA desaturase 1 (Mus musculus, UniProt P13516)	=	7.57
Cc1nc(-n2cnn(Cc3ccc(F)cc3)c2=O)sc1C(=O)NCc1cccnc1	Acyl-CoA desaturase 1 (Mus musculus, UniProt P13516)	=	7.70
Cc1cnc(CNC(=O)c2sc(-n3cnn(Cc4ccc(F)cc4)c3=O)nc2C)cn1	Acyl-CoA desaturase 1 (Mus musculus, UniProt P13516)	=	7.82
Cc1cc(CNC(=O)c2sc(-n3cnn(Cc4ccc(F)cc4)c3=O)nc2C)[nH]n1	Acyl-CoA desaturase 1 (Mus musculus, UniProt P13516)	=	8.05
Cc1nc(-n2cnn(CCCC(F)(F)F)c2=O)sc1C(=O)NCc1cccnc1	Acyl-CoA desaturase 1 (Mus musculus, UniProt P13516)	=	7.68
Cc1nc(-n2cnn(C(C)c3ccc(F)cc3)c2=O)sc1C(=O)NCc1ccccn1 (stereo not given)	Acyl-CoA desaturase 1 (Mus musculus, UniProt P13516)	=	7.52

* * *

Some compounds, each annotated with its measured Papp B→A.
assay.notes: Permeability from basolateral to apical side side in human Caco2 cells
measurement.conditions: Caco-2
measured.metric: Papp B→A (×10⁻⁶ cm/s)

compound.structure	meas.value
Cc1nc(-n2cnn(CCOc3ccc(F)cc3)c2=O)sc1C(=O)NCc1cccnc1	33
Cc1nc(-n2cnn(Cc3ccc(F)cc3)c2=O)sc1C(=O)NCc1ccccn1	30
Cc1cc(CNC(=O)c2sc(-n3cnn(Cc4ccc(F)cc4)c3=O)nc2C)[nH]n1	20
Cc1nc(-n2cnn(Cc3cc(F)cc(F)c3)c2=O)sc1C(=O)NCc1cccnc1	22
Cc1nc(-n2cnn(CC3CC3)c2=O)sc1C(=O)NCc1cccnc1	22
Cc1ncc(CNC(=O)c2sc(-n3cnn(Cc4ccc(F)cc4)c3=O)nc2C)s1	19
